Let's look at some binders and their measured Trimeric HA Binding RLU.
- STUDY TARGET: recombinant homotrimeric HA, A/Netherlands/219/03 H7N7 (Influenza A virus A/Netherlands/219/03 (H7N7))
- METHOD DESCRIPTION: trimeric HA microarray, transfection set 2
- CONDITION PARAMETERS: remark: other sources report otherwise

| BINDER | UNIT ABBREVIATION | Trimeric HA Binding RLU |
| --- | --- | --- |
| TCN-504 (3251_K17) (antibody, V domains shown) VH: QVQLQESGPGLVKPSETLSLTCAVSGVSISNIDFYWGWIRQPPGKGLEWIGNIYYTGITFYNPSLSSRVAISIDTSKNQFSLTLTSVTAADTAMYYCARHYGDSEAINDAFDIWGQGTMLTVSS VL: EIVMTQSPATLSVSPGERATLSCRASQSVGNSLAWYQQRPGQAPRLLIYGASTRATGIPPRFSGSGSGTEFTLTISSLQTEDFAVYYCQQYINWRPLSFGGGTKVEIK | RLU | 19300 |
| TCN-526 (5084_C17) (antibody, V domains shown) VH: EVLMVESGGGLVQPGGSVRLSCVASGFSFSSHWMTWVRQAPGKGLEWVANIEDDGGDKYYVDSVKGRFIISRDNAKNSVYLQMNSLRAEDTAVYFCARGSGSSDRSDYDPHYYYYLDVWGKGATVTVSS VL: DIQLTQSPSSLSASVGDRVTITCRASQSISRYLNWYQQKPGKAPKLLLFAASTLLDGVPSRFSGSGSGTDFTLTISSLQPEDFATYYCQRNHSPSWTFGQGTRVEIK | RLU | 5660 |
